# TESTED ON: Vibrio cholerae sialidase (type III) (Vibrio cholerae serotype O1, UniProt P0C6E9)
# Sequence (P0C6E9 25-781 limits assumed): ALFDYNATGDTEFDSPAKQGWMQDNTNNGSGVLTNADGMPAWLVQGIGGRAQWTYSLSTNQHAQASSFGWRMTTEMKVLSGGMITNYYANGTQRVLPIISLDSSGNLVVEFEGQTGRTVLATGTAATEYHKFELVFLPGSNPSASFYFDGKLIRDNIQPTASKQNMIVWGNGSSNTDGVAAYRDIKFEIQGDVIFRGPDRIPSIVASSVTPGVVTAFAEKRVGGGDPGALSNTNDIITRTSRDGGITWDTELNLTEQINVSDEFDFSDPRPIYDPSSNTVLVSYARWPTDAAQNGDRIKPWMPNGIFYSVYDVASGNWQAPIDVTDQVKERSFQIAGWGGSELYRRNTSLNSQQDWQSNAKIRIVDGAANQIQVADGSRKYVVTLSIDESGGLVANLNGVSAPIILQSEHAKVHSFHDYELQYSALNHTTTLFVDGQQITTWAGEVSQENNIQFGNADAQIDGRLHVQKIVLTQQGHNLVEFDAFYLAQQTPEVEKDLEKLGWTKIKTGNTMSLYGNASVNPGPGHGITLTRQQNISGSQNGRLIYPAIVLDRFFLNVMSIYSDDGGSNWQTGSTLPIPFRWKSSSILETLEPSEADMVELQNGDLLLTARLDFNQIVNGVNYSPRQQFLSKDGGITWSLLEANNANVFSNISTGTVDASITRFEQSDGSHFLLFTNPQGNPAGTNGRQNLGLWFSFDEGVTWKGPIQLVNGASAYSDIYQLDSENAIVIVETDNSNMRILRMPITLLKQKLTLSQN
# PROTOCOL: biochemical
# Assay type: biochemical
# REPORTED CONDITIONS: IC50 with Neu5Acα2–3GalβpNP as sialidase substrate, V. cholerae
OBSERVABLE: pIC50
Keep in mind that pIC50 stands for -log10 of concentration in molar terms.

As a guide, the following entries are already answered.
[N-]=[N+]=NCC(=O)N[C@H]1[C@H]([C@H](O)[C@H](O)CN=[N+]=[N-])OC(C(=O)O)=C[C@@H]1O [Neu5AcN39N32en (5)]    3.85
[N-]=[N+]=NC[C@@H](O)[C@@H](O)[C@@H]1OC(C(=O)O)=C[C@H](O)[C@H]1NC(=O)CO [Neu5Gc9N32en (4)]    4.74

Then there is this compound:
Find the measured pIC50: item COC[C@@H](O)[C@@H](O)[C@@H]1OC(C(=O)O)=C[C@H](O)[C@H]1NC(C)=O , target or system Vibrio cholerae sialidase (type III) (Vibrio cholerae serotype O1, UniProt P0C6E9).
3.89

----------
# TESTED ON: Vibrio cholerae sialidase (type III) (Vibrio cholerae serotype O1)
# PROTOCOL: biochemical
# Type: biochemical
# REPORTED CONDITIONS: IC50 with Neu5Acα2–6GalβpNP as sialidase substrate, V. cholerae
OBSERVABLE: pIC50
Here pIC50 is given on a logarithmic scale as minus log10 of the concentration in mol/L.

These recorded examples may help you get a feel for the data.
COC[C@@H](O)[C@@H](O)[C@@H]1OC(C(=O)O)=C[C@H](O)[C@H]1NC(C)=O    3.92
[N-]=[N+]=NC[C@@H](O)[C@@H](O)[C@@H]1OC(C(=O)O)=C[C@H](O)[C@H]1NC(=O)CO [Neu5Gc9N32en (4)]    4.89
CC(=O)N[C@H]1[C@H]([C@H](O)[C@H](O)CN=[N+]=[N-])OC(C(=O)O)=C[C@@H]1O [Neu5Ac9N32en (3)]    5.06

Give its pIC50 value. Item: [N-]=[N+]=NCC(=O)N[C@H]1[C@H]([C@H](O)[C@H](O)CN=[N+]=[N-])OC(C(=O)O)=C[C@@H]1O [Neu5AcN39N32en (5)]
3.96

----------
Collected IC50 values appear next to each entry.
# TESTED ON: Streptococcus pneumoniae sialidase NanB (Streptococcus pneumoniae serotype 4, UniProt Q54727)
# Sequence (Q54727 30-697): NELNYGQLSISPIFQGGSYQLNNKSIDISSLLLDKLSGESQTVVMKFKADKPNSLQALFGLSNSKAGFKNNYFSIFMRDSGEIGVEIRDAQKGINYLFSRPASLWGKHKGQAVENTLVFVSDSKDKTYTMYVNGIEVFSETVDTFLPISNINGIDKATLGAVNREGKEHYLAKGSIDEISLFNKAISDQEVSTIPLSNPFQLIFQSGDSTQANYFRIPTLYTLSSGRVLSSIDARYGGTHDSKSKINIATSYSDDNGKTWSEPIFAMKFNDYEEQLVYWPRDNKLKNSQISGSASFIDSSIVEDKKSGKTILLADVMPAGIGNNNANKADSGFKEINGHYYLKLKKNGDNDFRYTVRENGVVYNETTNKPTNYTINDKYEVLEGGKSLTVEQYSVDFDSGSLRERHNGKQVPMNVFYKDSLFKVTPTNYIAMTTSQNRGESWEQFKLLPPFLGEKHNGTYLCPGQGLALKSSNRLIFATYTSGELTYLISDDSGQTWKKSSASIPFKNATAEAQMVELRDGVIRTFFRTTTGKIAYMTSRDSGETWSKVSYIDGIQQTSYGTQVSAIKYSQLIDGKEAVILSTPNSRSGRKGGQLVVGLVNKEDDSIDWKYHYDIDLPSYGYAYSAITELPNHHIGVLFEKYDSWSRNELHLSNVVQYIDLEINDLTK

# annotated cases, reported IC50 shown
CCCNC[C@@H](O)[C@@H](O)[C@@H]1OC(C(=O)O)=C[C@H](O)[C@H]1NC(C)=O [Neu5Ac9NPro2en (7)]    5.4 mM
[N-]=[N+]=NC[C@@H](O)[C@@H](O)[C@@H]1OC(C(=O)O)=C[C@H](O)[C@H]1NC(=O)CO [Neu5Gc9N32en (4)]    > 10 mM
COC[C@@H](O)[C@@H](O)[C@@H]1OC(C(=O)O)=C[C@H](O)[C@H]1NC(C)=O [Neu5Ac9Me2en (6)]    3 mM
[N-]=[N+]=NCC(=O)N[C@H]1[C@H]([C@H](O)[C@H](O)CN=[N+]=[N-])OC(C(=O)O)=C[C@@H]1O [Neu5AcN39N32en (5)]    > 1 mM

Reported IC50, compound CC(=O)N[C@H]1[C@H]([C@H](O)[C@H](O)CN=[N+]=[N-])OC(C(=O)O)=C[C@@H]1O [Neu5Ac9N32en (3)] : ____
3.3 mM
